The values you see were collected from patent US20210155689A1.

Target: T1, human LAG-3 on cells (HEK293-hLAG-3 stable cell line) (human, UniProt P18627 23-525)
T1 sequence: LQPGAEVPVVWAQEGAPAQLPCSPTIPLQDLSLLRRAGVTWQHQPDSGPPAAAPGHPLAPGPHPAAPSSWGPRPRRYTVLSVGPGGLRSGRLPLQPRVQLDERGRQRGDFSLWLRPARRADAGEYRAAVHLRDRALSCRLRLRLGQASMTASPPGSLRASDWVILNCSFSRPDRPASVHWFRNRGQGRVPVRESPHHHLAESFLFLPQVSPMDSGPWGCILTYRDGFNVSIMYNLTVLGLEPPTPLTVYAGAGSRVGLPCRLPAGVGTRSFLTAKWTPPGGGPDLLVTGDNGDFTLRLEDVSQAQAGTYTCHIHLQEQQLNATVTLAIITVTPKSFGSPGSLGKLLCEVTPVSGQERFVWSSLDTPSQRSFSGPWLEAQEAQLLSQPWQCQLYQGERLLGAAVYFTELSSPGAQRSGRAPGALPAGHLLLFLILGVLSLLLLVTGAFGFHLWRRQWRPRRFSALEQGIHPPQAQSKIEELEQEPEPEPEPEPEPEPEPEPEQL
Assay: cell-based or functional assay
Exercise: for every item that follows, state its recorded IL-2 production, SEB-dependent PBMC stimulation test, 10 ug/ml, N = 1.
One number for each entry, in pg/mL.

409B11E12 mouse-human chimeric antibody (antibody, V domains shown, also called mAb104-409B11E12) VH: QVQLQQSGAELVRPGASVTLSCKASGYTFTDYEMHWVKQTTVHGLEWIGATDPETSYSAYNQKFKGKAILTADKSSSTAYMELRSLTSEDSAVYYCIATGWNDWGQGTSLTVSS VL: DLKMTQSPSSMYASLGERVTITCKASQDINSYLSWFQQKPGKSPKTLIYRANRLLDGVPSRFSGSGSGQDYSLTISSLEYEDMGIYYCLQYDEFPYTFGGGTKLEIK; 3140

Then this binder:
Query :: Please supply the value of reported IL-2 production, SEB-dependent PBMC stimulation test, 10 ug/ml, N = 1 for the item 556F6B8 mouse-human chimeric antibody (antibody, V domains shown, also called mAb123-556F6B8; 556F8B8) VH: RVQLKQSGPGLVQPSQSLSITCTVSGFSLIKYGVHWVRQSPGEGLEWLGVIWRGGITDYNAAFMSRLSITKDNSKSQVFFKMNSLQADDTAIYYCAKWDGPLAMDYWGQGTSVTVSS VL: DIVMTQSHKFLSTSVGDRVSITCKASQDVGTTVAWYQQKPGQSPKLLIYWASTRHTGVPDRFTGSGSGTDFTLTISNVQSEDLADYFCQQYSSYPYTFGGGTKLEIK
Result :: 2610
